Tested on: Saccharomyces cerevisiae wild type strain BY4743
PROTOCOL_NOTES: AF1 combined gene expression and metabolite mapping to reactions and pathways (KEGG)
Assay type: cell-based
Hi there, I'd appreciate the recorded Number Of Pathways Having at Least One Enzyme and One Compound Perturbed (# Reactions) for every entry that follows.
Could you respond with only the numeric value?

I have this molecule here, "C[C@@H]1[C@H](O)[C@@H](C)/C=C/C=C/C=C/C=C/C=C/C=C/C=C/[C@H](O[C@@H]2O[C@H](C)[C@@H](O)[C@H](N)[C@@H]2O)C[C@@H]2O[C@](O)(C[C@@H](O)C[C@@H](O)[C@H](O)CC[C@@H](O)C[C@@H](O)CC(=O)O[C@H]1C)C[C@H](O)[C@H]2C(=O)O" , and I need its recorded Number Of Pathways Having at Least One Enzyme and One Compound Perturbed (# Reactions).
37

I have this molecule here, CC(=O)N1CCN(c2ccc(OCC3COC(Cn4ccnc4)(c4ccc(Cl)cc4Cl)O3)cc2)CC1 (stereo not shown) , and I need its recorded Number Of Pathways Having at Least One Enzyme and One Compound Perturbed (# Reactions).
24

I have this molecule here, "OC(Cn1cncn1)(Cn1cncn1)c1ccc(F)cc1F" , and I need its recorded Number Of Pathways Having at Least One Enzyme and One Compound Perturbed (# Reactions).
15

I have this molecule here, "CC[C@@H]([C@H](C)O)n1ncn(-c2ccc(N3CCN(c4ccc(OC[C@@H]5CO[C@@](Cn6cncn6)(c6ccc(F)cc6F)C5)cc4)CC3)cc2)c1=O" , and I need its recorded Number Of Pathways Having at Least One Enzyme and One Compound Perturbed (# Reactions).
3

====

Test system: Arabidopsis thaliana
PROTOCOL_NOTES: MOA1 biochemical (metabolite) profiling by LC-MS and GC-MS
CONDITION_SET: 20 min, p < 0.11
Response field label takes MET when Number of Metabolites Changed: (unknown #) is strictly below 8 and NOT MET in all other cases.

Strictly below 8: is that where Number of Metabolites Changed: (unknown #) of "CNc1cnn(-c2cccc(C(F)(F)F)c2)c(=O)c1Cl" sits?
NOT MET

Strictly below 8: is that where Number of Metabolites Changed: (unknown #) of "COc1nc(C)nc(NC(=O)NS(=O)(=O)c2ccccc2Cl)n1" sits?
MET

Strictly below 8: is that where Number of Metabolites Changed: (unknown #) of CCSC(=O)N(CC(C)C)CC(C)C [Butylate] sits?
NOT MET

Strictly below 8: is that where Number of Metabolites Changed: (unknown #) of "O=C(O)c1ccccc1C(=O)Nc1cccc2ccccc12" sits?
NOT MET

Strictly below 8: is that where Number of Metabolites Changed: (unknown #) of "C[n+]1ccc(-c2cc[n+](C)cc2)cc1" sits?
NOT MET

====

Tested on: Arabidopsis thaliana plants
PROTOCOL_NOTES: SOA1 phenotypic analysis of herbicide-treated Arabidopsis (MIC, Tmic, leaf traits)
Format: in vivo
CONDITION_SET: numeric value standardized to mock treated
PARAMETER: pointedLeaves Dev.
Could you respond with only the numeric value?

Look up pointedLeaves Dev. with Arabidopsis thaliana plants for this compound: "C[n+]1ccc(-c2cc[n+](C)cc2)cc1"
1

Look up pointedLeaves Dev. with Arabidopsis thaliana plants for this compound: "COc1c(Cl)ccc(Cl)c1C(=O)O"
0

Look up pointedLeaves Dev. with Arabidopsis thaliana plants for this compound: "CC(C)N1C(=O)c2ccccc2NS1(=O)=O"
1

Look up pointedLeaves Dev. with Arabidopsis thaliana plants for this compound: "CSc1nnc(C(C)(C)C)c(=O)n1N"
1

Look up pointedLeaves Dev. with Arabidopsis thaliana plants for this compound: CC(C)C1(C)N=C(c2ncccc2C(=O)O)NC1=O (stereo not drawn)
0

Look up pointedLeaves Dev. with Arabidopsis thaliana plants for this compound: O=C(O)CNCP(=O)(O)O [Glyphosate]
1

Look up pointedLeaves Dev. with Arabidopsis thaliana plants for this compound: "COc1nc(C)nc(NC(=O)NS(=O)(=O)c2ccccc2Cl)n1"
0

Look up pointedLeaves Dev. with Arabidopsis thaliana plants for this compound: "O=C(O)COc1ccc(Cl)cc1Cl"
0

Look up pointedLeaves Dev. with Arabidopsis thaliana plants for this compound: CP(=O)(O)CCC(N)C(=O)O (stereo not drawn) [Glufosinate]
1

Look up pointedLeaves Dev. with Arabidopsis thaliana plants for this compound: "COC(=O)c1cc(Oc2ccc(Cl)cc2Cl)ccc1[N+](=O)[O-]"
0

Look up pointedLeaves Dev. with Arabidopsis thaliana plants for this compound: "CN(C)C(=O)Nc1ccc(Cl)c(Cl)c1"
1

Look up pointedLeaves Dev. with Arabidopsis thaliana plants for this compound: "O=C(O)Cn1c(=O)sc2cccc(Cl)c21"
0

Look up pointedLeaves Dev. with Arabidopsis thaliana plants for this compound: "c1cc[n+]2c(c1)-c1cccc[n+]1CC2"
1

Look up pointedLeaves Dev. with Arabidopsis thaliana plants for this compound: "O=C(O)c1cc(Oc2ccc(C(F)(F)F)cc2Cl)ccc1[N+](=O)[O-]"
0

Look up pointedLeaves Dev. with Arabidopsis thaliana plants for this compound: "CCNc1nc(Cl)nc(NC(C)C)n1"
1

Look up pointedLeaves Dev. with Arabidopsis thaliana plants for this compound: CCc1cnc(C2=NC(C)(C(C)C)C(=O)N2)c(C(=O)O)c1 (stereo not drawn)
0

Look up pointedLeaves Dev. with Arabidopsis thaliana plants for this compound: CCc1cccc(C)c1N(C(=O)CCl)C(C)COC (stereo not drawn)
1

Look up pointedLeaves Dev. with Arabidopsis thaliana plants for this compound: "Nc1nc[nH]n1"
0
